The reader will find reported Classification values listed item by item below.
Biological target: T1, GST-NeDLG PDZ domains 1, 2, Q92796
T1 chain: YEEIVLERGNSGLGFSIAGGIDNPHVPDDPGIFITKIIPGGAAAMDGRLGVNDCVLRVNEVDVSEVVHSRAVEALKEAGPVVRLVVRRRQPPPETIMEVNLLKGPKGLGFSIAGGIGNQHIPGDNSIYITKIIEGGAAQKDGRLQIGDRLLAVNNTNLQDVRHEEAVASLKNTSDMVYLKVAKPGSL
Experiment: G' assay; further: key of the grades not given here
MEASUREMENT_LABEL: Classification (A450 class)

> print(dat)
                                     binder  endpoint.value
1  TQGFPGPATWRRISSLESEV (modifications not checked) [NMDA Glutamate Receptor 2C (cysteine-free)]               5
2  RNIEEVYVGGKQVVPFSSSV (modifications not checked) [Nedasin (s-form)]               2
3  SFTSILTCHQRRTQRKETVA (modifications not checked) [GluR5-2 (rat)]               5
4  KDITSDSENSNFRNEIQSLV (modifications not checked) [CD95]               1
